- System: COLO 205 colon
- measurement.notes: NCI-60 one-dose screen, 48 h (100 = growth as untreated, 0 = no growth, -100 = all killed)
- condition: 10 µM unless noted
Compounds without any hit were thinned out: in the full panel of roughly 83,000, 20% have a hit.
measure.name: growth (%)

>>> print(df.to_string())
                                    compound  measure_name  unit  reported
 0             CC(C)NC(=O)OCC#CCOC(=O)NC(C)C        growth     %       106
 1  CCCc1cc2c(cc1CN(Cc1cc3c(cc1CCC)OCO3)C(=N)OCC)OCO2        growth     %      93.6
 2  Cc1cc(C)c2c(n1)sc1c(Nc3ccc(OCc4ccccc4)cc3)ncnc12        growth     %       111
 3  Cc1cc(C)cc(Nc2cc(C)nc3nc(C(F)(F)F)nn23)c1        growth     %      16.7
 4      Fc1ccc(-c2nnc(N3CCOCC3)c3ccccc23)cc1        growth     %      89.6
 5  O=C(NC1CC1)c1ccc(-c2nc3ccc4[nH]ncc4c3c3c2CCCC3)cc1        growth     %      23.6
 6  CCN(CC)CCCC(C)Nc1cnc(C(=O)Nc2cc(C)cc3cccnc23)cn1 (stereo unspecified)        growth     %        37
 7  c1ccc(C(Nc2ccccn2)(c2ccccc2)c2ccccc2)cc1        growth     %        90
 8  ClCc1cccc(CSc2ncnc3c2ncn3Cc2cccc(CCl)c2)c1        growth     %      26.3
 9  CC(=O)N(C)c1ccc(Nc2cc(C)[nH]c3ccc4ncnc4c23)cc1        growth     %      53.3
10         CCc1ccc(Nc2cc(C)c3ccc(O)cc3n2)cc1        growth     %     -81.3

* * *

- Tested on: T-47D breast
- measurement.notes: NCI-60 one-dose screen, 48 h (100 = growth as untreated, 0 = no growth, -100 = all killed)
- condition: 10 µM unless noted
Compounds without any hit were thinned out: in the full panel of roughly 83,000, 20% have a hit.
Respond with true (1) for growth values of 60% and above, false (0) for values below.

In [3]: df
Out[3]:
                                   compound  qualitative_label
0  C=CCn1c(SCC(=O)Nc2ccc(/C(C)=N\O)cc2)nnc1-c1cc(-c2ccc(Cl)cc2)nc2ccccc12          false (0)
1   O=C(Cn1nncc1CN1C(=O)CSC1=O)Nc1ccc(F)cc1           true (1)
2            CCCCCNCCCCCNc1cc(OC)cc2cccnc12           true (1)
3       Clc1cc(Br)ccc1-c1ccc(CNCC2CCNCC2)o1          false (0)
4         Cc1ccc(Nc2nc(NCCO)c3ccccc3n2)cc1C          false (0)
5  CC(=O)c1cc(C(=O)c2ccc3c(c2)Sc2ccccc2N3)c2c(C)cccn12          false (0)
6  Cc1nc([C@H]2CC[C@H]3[C@@H]4CCC5=CC(=O)CC[C@]5(C)[C@H]4CC[C@]23C)cs1          false (0)
7    Nc1c(C(=O)Nc2cccc(Cl)c2)sc2ncc(Br)cc12           true (1)
8  O=C(NCC(c1ccsc1)N1CCCCCC1)c1ccc(C(F)(F)F)cc1 (stereo not given)           true (1)

* * *

Reported growth values for a set of compounds
- Tested on: RPMI-8226 leukemia
- measurement.notes: NCI-60 one-dose screen, 48 h (100 = growth as untreated, 0 = no growth, -100 = all killed)
- condition: 10 µM unless noted
The panel holds about 83,000 compounds, 20% with a hit somewhere; the sample as a whole holds those more often.
measure.name: growth (%)

                                    compound  reported
 0  Cc1cc(NC(=O)c2ccc(N)cc2)ccc1N=Nc1ccc2cc(S(=O)(=O)O)cc(S(=O)(=O)O)c2c1        94
 1  NS(=O)(=O)c1ccc(N2N=C(c3ccc(Br)cc3)CC2c2cn(-c3ccccc3)nc2-c2ccc(Cl)cc2)cc1 (stereo not given)        74
 2  COc1cccc(NC(=O)c2c(-c3ccccc3)c(-c3ccccc3)n[nH]c2=O)c1      86.1
 3  COc1ccc(NC(=O)c2ccc(C(F)(F)F)nc2Nc2ccc(Cl)cc2C)cc1Cl     -17.9
 4  COc1c(C(=O)/C=C/c2ccc(C)o2)c(O)cc2occc12      82.5
 5  COC(=O)c1cc2oc(/C=N/NC(=O)c3cc4oc(-c5cccc(C(F)(F)F)c5)cc4[nH]3)cc2n1Cc1ccccc1      85.6
 6     O=C(Nc1cnc(C(F)(F)F)cn1)c1cc(Cl)ccc1O     -21.7
 7       O=C1Nc2ccccc2/C1=C/c1c[nH]c2ccccc12      77.1
 8  CCN1CCN(Cc2ccc(NC(=O)c3nc4ccc5[nH]ncc5c4c4c3CCCC4)cc2C(F)(F)F)CC1     -24.6
 9  CCN(CC)c1ccc2nc3c4ccccc4c(=O)cc-3n(-c3ccccc3)c2c1      6.27
10  CCc1ccc2c(c1)N(CCO)C1=C(C(=O)OC1)C2c1cccc(Cl)c1 (stereo not given)      20.3
11  CC(=O)c1c(C)nc(-c2cc(C)cc(Cl)c2)nc1-c1cccc(Oc2ccccc2)c1      46.4
12  COc1cc2nccc(Oc3ccc(NC(=O)C4(C(=O)Nc5ccc(F)cc5)CC4)cc3)c2cc1OC(=O)c1ccc(N)cc1      10.4
13  COc1ccc(-c2n[nH]nc2-c2cc(OC)c3c(c2)OCO3)cc1      9.65
14  COc1ccc2c(c1)CCCC21C(=O)Nc2c(Cl)cccc21 (stereo not given)      82.9
15  CNC(=O)c1cc(Oc2ccc(NC(=O)c3[nH]c(SC)nc3-c3ccc(F)cc3)cc2)ccn1      43.8
16  CNC(=O)c1cc(Oc2ccc(NC(=O)c3nc(S(C)(=O)=O)sc3-c3ccc(F)cc3)cc2)ccn1      15.9
17  O=C1OCC2=C1C(c1cccc(Br)c1)c1cc3c(cc1N2CCO)OCCO3 (stereo not given)      21.4
18  CC(=O)c1cccc(Nc2ncnc3ccc(NC(=O)c4ccco4)cc23)c1        75
19  CCCOC(=O)C1c2cc3c(cc2CC(C)C1C(=O)OCCC)OCO3 (stereo not given)      99.8

* * *

- Tested on: T-47D breast
- measurement.notes: NCI-60 one-dose screen, 48 h (100 = growth as untreated, 0 = no growth, -100 = all killed)
- condition: 10 µM unless noted
This is part of a sample that, as a whole, favours compounds with a hit. Of some 83,000 tested, about 20% had one in any assay.
Reported growth values for a set of compounds
measure.name: growth (%)

                                    compound  reported
 0                Cc1cc(Cl)c2ccc(N(C)C)cc2n1      90.7
 1  CS(=O)(=O)Nc1cc(-c2cc3ncc(C#N)c(Nc4ccc(Oc5ccccc5)c(Cl)c4)c3s2)cnc1Cl      15.8
 2  Cc1cc(-c2nnc(/C=C/c3ccc4c(c3)OCO4)o2)n[nH]1      60.9
 3    O=NN(CC(=O)NNc1ccccc1)CC(=O)NNc1ccccc1      46.6
 4  CCN(CC)Cc1cc(Nc2ccnc3cc(Cl)ccc23)cc(-c2ccc(Cl)cc2)c1O      50.9
 5  COc1ccc(/C=C2\N=C(c3cccnc3)N(c3ccccc3)NC2=O)cc1      90.2
 6  CCCCNCC(O)c1cc(-c2ccc(C(F)(F)F)cc2)nc(-c2ccc(C(F)(F)F)cc2)c1 (stereo unspecified)     -80.3
 7          NC(N)=N/N=C\c1ccc(OCc2ccccc2)cc1      35.7
 8  CCN(CC)CCCC(C)Nc1cnc(C(=O)Nc2cccc3ccc(OC)nc23)cn1 (stereo unspecified)      83.9
 9     Cc1ccc(/C=C/C(=N/N=C(N)N)c2ccccc2)cc1      40.9
10    O=c1c2sc3ncc(Cl)cc3c2nnn1-c1cccc(Cl)c1      74.7

* * *

- System: U251 CNS
- measurement.notes: NCI-60 one-dose screen, 48 h (100 = growth as untreated, 0 = no growth, -100 = all killed)
- condition: 10 µM unless noted
Compounds without any hit were thinned out: in the full panel of roughly 83,000, 20% have a hit.
Response field label takes TRUE when growth is strictly below 90% and FALSE in all other cases.

                                   compound  qualitative_label
0  CC(CN1CCN(C)CC1)CN1c2ccccc2Sc2ccc(C(F)(F)F)cc21 (stereo not given)               TRUE
1        [O-]/[N+](=C\c1ccccc1)CC1(O)CCCCC1              FALSE
2  CCSc1ccc([C@@H]2[C@@H](O)C(=O)N2c2cc(OC)c(OC)c(OC)c2)cc1               TRUE
3  NCCCOc1cc2ccccc2cc1C(=O)NCCCOc1cc2ccccc2cc1C(=O)Nc1ccc(Cl)cc1O               TRUE
4                            CC1=NOCC(=O)N1              FALSE
5  C=CCn1c(SCC(=O)Nc2ccc(/C(C)=N\O)cc2)nnc1-c1cc(-c2ccc(Cl)cc2)nc2ccccc12               TRUE
6             NC(=O)c1noc(C(=O)c2ccccc2)c1N               TRUE
7  FC(F)(F)c1ccc(/C=N/Nc2nnc3n2N=C(c2ccc(Cl)cc2)CS3)cc1               TRUE
8  COc1ccc(NC(=O)/C=C/c2ccc(NC(=O)N3CCCC3)cc2)cn1              FALSE
9  COc1ccc(CCN2COc3c([C@@H](C)CCC=C(C)C)ccc(C)c3C2)cc1OC               TRUE
